# Solubility [mg per ml 'as is'] listing for each entry below
# experiment: Solubility screening in trehalose matrices pH 2.65 to 7.03
# Assay type: physicochemical
# run parameters: 10 mM sodium citrate and 260 mM trehalose dihydrate, pH 3.99
Ends that are not written are not given here.

{"record sequence": "AKYMVIQGEPGRVIRGK [Bir12B]", "Solubility [mg per ml 'as is']": "10.32 mg per ml ‘as is’"}
{"record sequence": "KEMGETLLRAVESYLLAHS [Bir09B]", "Solubility [mg per ml 'as is']": "11.40 mg per ml ‘as is’"}
{"record sequence": "AERERIFKRFDANGEGK [Bir16A]", "Solubility [mg per ml 'as is']": "7.49 mg per ml ‘as is’"}
{"record sequence": "PAARMFKAFILEGDKLVPK [Bir02J]", "Solubility [mg per ml 'as is']": "0.39 mg per ml ‘as is’"}
{"record sequence": "PGTIKKISFPEGFPFKYV [Bir04]", "Solubility [mg per ml 'as is']": "20.36 mg per ml ‘as is’"}
{"record sequence": "SNEIKIVATPEGGSILK [Bir07C]", "Solubility [mg per ml 'as is']": "0.38 mg per ml ‘as is’"}
{"record sequence": "ETLLRAVESYLLAHSDAY [Bir09]", "Solubility [mg per ml 'as is']": "0.36 mg per ml ‘as is’"}
{"record sequence": "FNYETETTSVIPAARK [BIR1I]", "Solubility [mg per ml 'as is']": "2.28 mg per ml ‘as is’"}

---

# experiment: Solubility screening in trehalose matrices pH 2.65 to 7.03
# Assay type: physicochemical
# run parameters: 10 mM sodium citrate and 260 mM trehalose dihydrate, pH 6.01
Ends that are not written are not given here.
Think of 1 mg per ml ‘as is’ as a floor: if Solubility [mg per ml 'as is'] stands on it or above, it is YES; beneath it, NO.

{"record sequence": "PAARMFKAFILEGDKLVPK [Bir02J]", "class": "NO"}
{"record sequence": "AKYMVIQGEPGRVIRGK [Bir12B]", "class": "YES"}
{"record sequence": "KEMGETLLRAVESYLLAHS [BIR09R]", "class": "YES"}
{"record sequence": "ETLLRAVESYLLAHSDAY [Bir09]", "class": "YES"}
{"record sequence": "AERERIFKRFDANGEGK [Bir16A]", "class": "YES"}
{"record sequence": "FNYETETTSVIPAARK [BIR1I]", "class": "YES"}
{"record sequence": "SNEIKIVATPEGGSILK [Bir07C]", "class": "NO"}
{"record sequence": "PGTIKKISFPEGFPFKYV [Bir04]", "class": "YES"}

---

# experiment: Solubility screening in trehalose matrices pH 2.65 to 7.03
# Assay type: physicochemical
# run parameters: 10 mM potassium dihydrogen phosphate and 260 mM trehalose dihydrate, pH 7.03
Ends that are not written are not given here.
Classify: Met when Solubility [μmol per ml] is strictly less than 9 μmol per ml; Not met when Solubility [μmol per ml] is not.

{"record sequence": "SNEIKIVATPEGGSILK [Bir07C]", "class": "Met"}
{"record sequence": "ETLLRAVESYLLAHSDAY [Bir09]", "class": "Met"}
{"record sequence": "PAARMFKAFILEGDKLVPK [Bir02J]", "class": "Met"}
{"record sequence": "FNYETETTSVIPAARK [BIR1I]", "class": "Not met"}
{"record sequence": "AERERIFKRFDANGEGK [Bir16A]", "class": "Not met"}

---

# experiment: Solubility screening in trehalose matrices pH 2.65 to 7.03
# Assay type: physicochemical
# run parameters: 10 mM potassium dihydrogen phosphate and 260 mM trehalose dihydrate, pH 7.03
Ends that are not written are not given here.
Classify: Satisfied when Solubility [mg per ml 'as is'] is strictly less than 20 mg per ml ‘as is’; Not satisfied when Solubility [mg per ml 'as is'] is not.

{"record sequence": "KEMGETLLRAVESYLLAHS [Bir09B]", "class": "Not satisfied"}
{"record sequence": "FNYETETTSVIPAARK [BIR1I]", "class": "Not satisfied"}
{"record sequence": "AERERIFKRFDANGEGK [Bir16A]", "class": "Not satisfied"}
{"record sequence": "SNEIKIVATPEGGSILK [Bir07C]", "class": "Satisfied"}
{"record sequence": "AKYMVIQGEPGRVIRGK [Bir12B]", "class": "Not satisfied"}
{"record sequence": "ETLLRAVESYLLAHSDAY [Bir09]", "class": "Satisfied"}
{"record sequence": "PGTIKKISFPEGFPFKYV [Bir04]", "class": "Not satisfied"}
{"record sequence": "PAARMFKAFILEGDKLVPK [Bir02J]", "class": "Satisfied"}

---

# experiment: Solubility screening in trehalose matrices pH 2.65 to 7.03
# Assay type: physicochemical
# run parameters: aqueous buffer; 10 mM sodium citrate and 260 mM trehalose dihydrate, pH 3.01; read-out: Solubility [mg per ml]
Ends that are not written are not given here.
reported metric: solubility

{"record sequence": "AKYMVIQGEPGRVIRGK [Bir12B]", "value measured": "≥ 4570 µg/mL"}
{"record sequence": "KEMGETLLRAVESYLLAHS [Bir09B]", "value measured": "≥ 10100 µg/mL"}
{"record sequence": "PGTIKKISFPEGFPFKYV [Bir04]", "value measured": "≥ 19600 µg/mL"}
{"record sequence": "SNEIKIVATPEGGSILK [Bir07C]", "value measured": "≥ 1150 µg/mL"}
{"record sequence": "AERERIFKRFDANGEGK [Bir16A]", "value measured": "≥ 6220 µg/mL"}
{"record sequence": "FNYETETTSVIPAARK [BIR1I]", "value measured": "≥ 1420 µg/mL"}

---

# experiment: Solubility screening in trehalose matrices pH 2.65 to 7.03
# Format: physicochemical
# run parameters: 10 mM sodium citrate and 260 mM trehalose dihydrate, pH 6.01
Ends that are not written are not given here.

{"record sequence": "KEMGETLLRAVESYLLAHS [BIR09R]", "Solubility after 24 Hours": "Completely dissolved"}
{"record sequence": "SNEIKIVATPEGGSILK [Bir07C]", "Solubility after 24 Hours": "Precipitated out,"}
{"record sequence": "FNYETETTSVIPAARK [BIR1I]", "Solubility after 24 Hours": "Completely dissolved"}
{"record sequence": "AKYMVIQGEPGRVIRGK [Bir12B]", "Solubility after 24 Hours": "Completely dissolved."}
{"record sequence": "PAARMFKAFILEGDKLVPK [Bir02J]", "Solubility after 24 Hours": "Precipitated out,"}
{"record sequence": "PGTIKKISFPEGFPFKYV [Bir04]", "Solubility after 24 Hours": "Completely dissolved."}
{"record sequence": "AERERIFKRFDANGEGK [Bir16A]", "Solubility after 24 Hours": "Completely dissolved"}

---

# experiment: Solubility screening in trehalose matrices pH 2.65 to 7.03
# Type: physicochemical
# run parameters: 10 mM sodium citrate and 260 mM trehalose dihydrate, pH 6.01
Ends that are not written are not given here.

{"record sequence": "KEMGETLLRAVESYLLAHS [BIR09R]", "Comments (solubility on preparation)": "Completely dissolved"}
{"record sequence": "PGTIKKISFPEGFPFKYV [Bir04]", "Comments (solubility on preparation)": "Completely dissolved."}
{"record sequence": "FNYETETTSVIPAARK [BIR1I]", "Comments (solubility on preparation)": "Completely dissolved"}
{"record sequence": "ETLLRAVESYLLAHSDAY [Bir09]", "Comments (solubility on preparation)": "Completely dissolved"}
{"record sequence": "AERERIFKRFDANGEGK [Bir16A]", "Comments (solubility on preparation)": "Completely dissolved"}
{"record sequence": "SNEIKIVATPEGGSILK [Bir07C]", "Comments (solubility on preparation)": "Completely dissolved in"}
{"record sequence": "PAARMFKAFILEGDKLVPK [Bir02J]", "Comments (solubility on preparation)": "Completely dissolved in"}
{"record sequence": "AKYMVIQGEPGRVIRGK [Bir12B]", "Comments (solubility on preparation)": "Completely dissolved."}

---

# experiment: Solubility screening in trehalose matrices pH 2.65 to 7.03;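 further: test items are peptides, each checked for solubility in every trehalose matrix, the matrices made up in distilled deionised water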
# Type: physicochemical
# run parameters: 10 mM potassium dihydrogen phosphate and 260 mM trehalose dihydrate, pH 6.03
Ends that are not written are not given here.
reported metric: Commute (solubility on preparation)

{"record sequence": "AERERIFKRFDANGEGK [Bir16A]", "reported metric": "Commute (solubility on preparation)", "value measured": "Completely dissolved"}
{"record sequence": "PAARMFKAFILEGDKLVPK [Bir02J]", "reported metric": "Commute (solubility on preparation)", "value measured": "Completely dissolved"}
{"record sequence": "KEMGETLLRAVESYLLAHS [Bir09B]", "reported metric": "Commute (solubility on preparation)", "value measured": "Completely dissolved in"}
{"record sequence": "AKYMVIQGEPGRVIRGK [Bir12B]", "reported metric": "Commute (solubility on preparation)", "value measured": "Completely dissolved"}
{"record sequence": "FNYETETTSVIPAARK [BIR1I]", "reported metric": "Commute (solubility on preparation)", "value measured": "Completely dissolved"}
{"record sequence": "SNEIKIVATPEGGSILK [Bir07C]", "reported metric": "Commute (solubility on preparation)", "value measured": "Completely dissolved in"}
{"record sequence": "PGTIKKISFPEGFPFKYV [Bir04]", "reported metric": "Commute (solubility on preparation)", "value measured": "Completely dissolved"}
